B1: WDFY1 (parent)
chain: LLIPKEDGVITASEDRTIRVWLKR

Variants of: B1
Test: protein stability index of a GFP-peptide fusion (GPS, HEK-293T) (PSI 1-6); higher = more stable;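 note: lentivirally expressed fusions sorted by FACS into six bins by GFP to DsRed ratio, PSI derived from sequencing read proportions per bin multiplied by bin number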
Conditions: c terminus: a fixed tail appended
Decision: protein stability index compared against 2; not below it gives satisfied, below it gives not satisfied.

>>> assigned_class("T11I")
"satisfied"
>>> assigned_class("K5E")
"not satisfied"
>>> assigned_class("I18L")
"satisfied"
>>> assigned_class("R24D")
"satisfied"
>>> assigned_class("D7F")
"satisfied"
>>> assigned_class("I18M")
"not satisfied"
>>> assigned_class("E6W")
"not satisfied"
>>> assigned_class("L2C")
"satisfied"
>>> assigned_class("K23L")
"satisfied"
>>> assigned_class("V9E")
"satisfied"
>>> assigned_class("D7I")
"not satisfied"
>>> assigned_class("T17M")
"not satisfied"
>>> assigned_class("K23E")
"satisfied"
>>> assigned_class("L1W")
"not satisfied"
>>> assigned_class("E6Q")
"satisfied"
>>> assigned_class("K23P")
"satisfied"
>>> assigned_class("V9K")
"not satisfied"
>>> assigned_class("P4D")
"satisfied"
>>> assigned_class("V20M")
"not satisfied"
>>> assigned_class("I10M")
"satisfied"
>>> assigned_class("R24E")
"satisfied"
>>> assigned_class("G8I")
"not satisfied"
>>> assigned_class("P4C")
"satisfied"
>>> assigned_class("L22K")
"satisfied"
>>> assigned_class("R24G")
"satisfied"
>>> assigned_class("V20W")
"not satisfied"
>>> assigned_class("P4G")
"not satisfied"
>>> assigned_class("L22M")
"satisfied"
>>> assigned_class("G8R")
"satisfied"
>>> assigned_class("A12F")
"not satisfied"
>>> assigned_class("V20D")
"satisfied"
>>> assigned_class("I10G")
"satisfied"
>>> assigned_class("S13G")
"satisfied"
>>> assigned_class("I10P")
"satisfied"
>>> assigned_class("I3R")
"satisfied"
>>> assigned_class("K5C")
"satisfied"
>>> assigned_class("K5H")
"not satisfied"
>>> assigned_class("E6L")
"satisfied"
>>> assigned_class("V20C")
"satisfied"
>>> assigned_class("T17S")
"not satisfied"
>>> assigned_class("G8M")
"not satisfied"
>>> assigned_class("S13D")
"satisfied"
>>> assigned_class("P4I")
"not satisfied"
>>> assigned_class("V9F")
"not satisfied"
>>> assigned_class("R19N")
"not satisfied"
>>> assigned_class("L22E")
"satisfied"
>>> assigned_class("E6Y")
"satisfied"
>>> assigned_class("E6R")
"not satisfied"
>>> assigned_class("I3D")
"satisfied"
>>> assigned_class("R19Y")
"satisfied"
>>> assigned_class("D15M")
"not satisfied"
>>> assigned_class("R19V")
"satisfied"
>>> assigned_class("S13A")
"not satisfied"
>>> assigned_class("G8N")
"satisfied"
>>> assigned_class("L22N")
"satisfied"
>>> assigned_class("K23M")
"not satisfied"
>>> assigned_class("W21L")
"satisfied"
>>> assigned_class("V20L")
"satisfied"
>>> assigned_class("I18R")
"satisfied"
>>> assigned_class("I10T")
"satisfied"
>>> assigned_class("L2V")
"satisfied"
>>> assigned_class("P4R")
"satisfied"
>>> assigned_class("E6M")
"satisfied"
>>> assigned_class("D15G")
"satisfied"
>>> assigned_class("L2Y")
"not satisfied"
>>> assigned_class("L2H")
"not satisfied"
>>> assigned_class("L22H")
"satisfied"
>>> assigned_class("D7S")
"not satisfied"
>>> assigned_class("E14K")
"not satisfied"
>>> assigned_class("K23V")
"satisfied"
>>> assigned_class("E14G")
"satisfied"
>>> assigned_class("K5Q")
"not satisfied"
>>> assigned_class("R19L")
"not satisfied"
>>> assigned_class("L1N")
"satisfied"
>>> assigned_class("K23A")
"not satisfied"
>>> assigned_class("W21T")
"satisfied"
>>> assigned_class("L1E")
"satisfied"
>>> assigned_class("V20T")
"satisfied"
>>> assigned_class("L22F")
"satisfied"
>>> assigned_class("T11H")
"satisfied"
>>> assigned_class("S13L")
"satisfied"
>>> assigned_class("L2W")
"not satisfied"
>>> assigned_class("L22P")
"satisfied"
>>> assigned_class("R24Y")
"satisfied"
>>> assigned_class("G8C")
"satisfied"
>>> assigned_class("G8Q")
"not satisfied"
>>> assigned_class("K23D")
"satisfied"
>>> assigned_class("D15K")
"not satisfied"
>>> assigned_class("R16P")
"satisfied"
